- measurement target: T1, human leukocyte elastase (hLE) (human), P08246
- T1 chain: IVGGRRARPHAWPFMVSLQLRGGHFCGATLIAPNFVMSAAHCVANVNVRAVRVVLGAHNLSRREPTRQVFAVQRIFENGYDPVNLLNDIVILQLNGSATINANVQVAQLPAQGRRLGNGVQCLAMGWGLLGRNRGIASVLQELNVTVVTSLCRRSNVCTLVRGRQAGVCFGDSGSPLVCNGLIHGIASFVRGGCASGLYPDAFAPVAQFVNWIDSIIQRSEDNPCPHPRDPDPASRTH
- experiment description: other enzyme inhibition
- measurement conditions: modification not given
pKi: −log10 of the molar value.
readout label: pKi

{"binder": "LHFYTELSSTRGYSI [CRP37-51 (peptide 1)]", "result": "< 3.70"}
